- assayTarget: Mitogen-activated protein kinase kinase kinase 5 (Homo sapiens, UniProt Q99683)
- Sequence (Q99683 whole entry): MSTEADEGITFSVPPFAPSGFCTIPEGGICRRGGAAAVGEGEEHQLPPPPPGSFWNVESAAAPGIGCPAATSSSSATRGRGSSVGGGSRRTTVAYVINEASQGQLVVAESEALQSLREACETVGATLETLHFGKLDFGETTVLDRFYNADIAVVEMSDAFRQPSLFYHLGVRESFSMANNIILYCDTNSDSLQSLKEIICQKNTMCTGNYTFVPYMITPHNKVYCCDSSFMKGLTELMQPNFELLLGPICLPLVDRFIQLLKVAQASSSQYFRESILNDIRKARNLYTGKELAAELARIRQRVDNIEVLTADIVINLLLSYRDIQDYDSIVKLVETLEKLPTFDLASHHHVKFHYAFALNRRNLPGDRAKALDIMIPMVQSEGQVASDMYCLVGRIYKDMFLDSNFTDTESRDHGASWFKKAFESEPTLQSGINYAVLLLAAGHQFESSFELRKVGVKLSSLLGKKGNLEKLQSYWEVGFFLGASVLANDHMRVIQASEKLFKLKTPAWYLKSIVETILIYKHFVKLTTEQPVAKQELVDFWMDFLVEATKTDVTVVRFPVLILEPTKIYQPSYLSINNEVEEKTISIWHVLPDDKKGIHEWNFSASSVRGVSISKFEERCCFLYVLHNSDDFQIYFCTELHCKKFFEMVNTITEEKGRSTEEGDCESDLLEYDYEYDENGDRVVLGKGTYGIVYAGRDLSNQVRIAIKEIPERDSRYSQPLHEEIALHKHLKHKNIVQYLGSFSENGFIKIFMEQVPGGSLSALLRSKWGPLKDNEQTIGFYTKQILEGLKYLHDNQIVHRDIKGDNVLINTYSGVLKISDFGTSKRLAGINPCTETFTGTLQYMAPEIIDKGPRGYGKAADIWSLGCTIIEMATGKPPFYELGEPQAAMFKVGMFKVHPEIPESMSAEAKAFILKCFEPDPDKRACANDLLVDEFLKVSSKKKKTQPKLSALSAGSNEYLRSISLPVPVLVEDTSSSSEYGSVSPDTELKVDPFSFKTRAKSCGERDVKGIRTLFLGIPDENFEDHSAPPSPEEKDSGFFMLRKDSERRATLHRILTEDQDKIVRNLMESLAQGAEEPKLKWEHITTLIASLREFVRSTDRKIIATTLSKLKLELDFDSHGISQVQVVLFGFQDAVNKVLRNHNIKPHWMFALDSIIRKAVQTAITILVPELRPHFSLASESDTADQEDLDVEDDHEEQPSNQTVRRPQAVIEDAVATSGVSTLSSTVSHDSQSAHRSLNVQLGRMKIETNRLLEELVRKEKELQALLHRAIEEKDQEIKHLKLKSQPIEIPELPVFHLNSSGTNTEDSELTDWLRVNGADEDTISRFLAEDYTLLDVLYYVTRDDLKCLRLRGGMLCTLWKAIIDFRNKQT
- assayProtocol: ADP-Glo Assay: Table 3: The ability of test compounds to inhibit ASK1 kinase activity was determined using the luminescent ADP-Glo™ Kinase Assay and Myelin Basic Protein (MBP) as a substrate (Promega Corporation, Madison, Wis.). During the kinase reaction, ASK1 utilizes ATP and generates ADP. The remaining ATP is then depleted by addition of the ADP-Glo™ reagent which also terminates the reaction. Subsequent addition of the Kinase Detection Reagent converts the ADP that was produced during the kinase reaction to ATP, and this newly synthesized ATP is converted to light using the luciferase/luciferin reactions. The assay was performed according to the manufacturer's instructions. Briefly, purified, recombinant ASK1 (amino acids 649-946) (10-20 ng/well) was added to a 384-well, F bottom, small volume, HIbase, white plate (Greiner Bio-One, Monroe, N.C. #784075) containing 1-2 μL 5× test compound or vehicle control (diluted 1:20 from a 100% DMSO stock solution into 1× Reaction Buffer A). The enzyme was allowed to pre-incubate with test compound from 15-120 min at 30° C. before the addition of the ATP/substrate mix (final concentrations of 50 μM ATP+250 ng MBP in 1× Reaction Buffer A). The mixture was then incubated at room temperature for 40 min before the addition of ADP-Glo™ reagent and a second 40 minute room temperature incubation. Following the addition of the Kinase Detection Reagent, the plate was incubated for an additional 40 min at room temperature before reading luminescence on a FlexStation 3 (Molecular Devices, Sunnyvale, Calif.).
outcomeMeasure: IC50

## Task # get_value(readout='IC50', item= NCc1cc(Oc2ccnc(C(=O)Nc3cccc(-c4nncn4C4CC4)c3)c2)nc(C(F)(F)F)c1 )
## Result > 1 µM

Source of measurements: ChEMBL document CHEMBL5729129
